Experiment: qHTS of pediatric cancer cell lines to identify multiple opportunities for drug repurposing: Primary screen for NB-EBc1 cells (AID 1347095)
Conditions: NB-EBc1 neuroblastoma viability, CellTiter-Glo luminescence, 48 h; series mostly up to 46 µM
Inconclusive results are not listed. Active and inactive are the calls of the source. The call rests on the fitted dose curve; in most records, active means well fitted cell-killing curve with a large enough effect; inconclusive means small, poorly fitted or top-dose-only effect; inactive means no such curve, though single readings can be large or run the other way.
Respond only with the outcome that fits, drawn from active, inactive

Previously resolved entries follow.
molecule: Nc1ccn([C@@H]2O[C@H](CO)[C@H](O)C2(F)F)c(=O)n1
class-name: active

molecule: CN1CCC(CNc2ccc3ncc(-c4cccc(OC(F)(F)F)c4)n3n2)CC1
class-name: active

molecule: CC(C)c1noc(N2CCC(COc3ccc(-c4ccc(S(C)(=O)=O)cc4)nc3)CC2)n1
class-name: inactive

molecule: CCC1=C[C@@H]2CN(C1)Cc1c([nH]c3ccccc13)[C@@](C(=O)OC)(c1cc3c(cc1OC)N(C)[C@@H]1[C@@](O)(C(=O)OC)[C@H](OC(C)=O)[C@]4(CC)C=CCN5CC[C@]31[C@@H]54)C2
class-name: active

molecule: COc1cc(C)c(Sc2cnc(NC(=O)c3ccc(CNC(C)C(C)C)cc3)s2)cc1C(=O)N1CCN(C(C)=O)CC1 (centres undefined)
class-name: active

molecule: Cc1cc(N2CCOCC2)cc2[nH]c(-c3c(NC[C@@H](O)c4cccc(Cl)c4)cc[nH]c3=O)nc12
class-name: active

molecule: CC(NCc1ccc2c(c1)nc(NC(=O)c1ccc(-c3cn[nH]c3)s1)n2CC(C)(C)O)C(C)(C)C (centres undefined)
class-name: active

molecule: Cc1cc(Nc2cc(N3CCN(C)CC3)nc(Sc3ccc(NC(=O)C4CC4)cc3)n2)n[nH]1
class-name: active

Could you kindly confirm the outcome this assay logged for `CCC[C@H](NC(=O)C(C#N)=Cc1cccc(Br)n1)c1ccccc1` ? active

Called result for `Nc1ncnc2c1c(-c1cnc3[nH]ccc3c1)nn2C1CCCC1` active

Please let me know the test result on file for `C1Cc2[nH]nc(-c3nn[nH]n3)c2C1` . inactive

GET /call?item= `O=C(c1ccc(Nc2nccc(-c3cc4ccccc4s3)n2)cc1)N1CCC(N2CCCC2)CC1` returns the recorded outcome of this test. active

I would be grateful if you could indicate the recorded call for `CC(C)c1ccccc1Cc1cc(C(=O)Nc2ccc(S(=O)(=O)c3ccccc3C(C)(C)C)cc2)c(O)c(O)c1O` . active

Hi team, can someone confirm the assay call for `CCCCc1nc2cc(C=CC(=O)NO)ccc2n1CCN(CC)CC` ? active

Name the outcome recorded for `CC(=O)OCCN1C(=O)c2c(C)nc3ccc(S(=O)(=O)N4CCOCC4)cc3c2C1=O` in the assay. inactive

Hey, what did the test say about `CN(C)c1nc(Cc2ccc(NC(=O)c3ccc4ccccc4c3)cc2)nc(Cl)c1CC(=O)O` ? inactive

Called result for `CC(C)Nc1cc(C(F)(F)F)cc2nc(NC(=O)c3cccnc3)nn12` inactive

Tell me the recorded outcome of this test for `Cc1cc(Nc2cc(NC(=O)c3c(Cl)cccc3Cl)ccn2)nc(N)n1` . active

What did this assay record as the result for `O=C(CCCCCCC(=O)Nc1ccc([C@H]2O[C@@H](CSc3nc(-c4ccccc4)c(-c4ccccc4)o3)C[C@@H](c3ccc(CO)cc3)O2)cc1)NO` ? active

----------
Test: qHTS to identify inhibitors of the type 1 interferon - major histocompatibility complex class I in skeletal muscle: primary screen against the NCATS Mechanism Interrogation Plate v5.0 (MIPE) Libary (AID 1347411); further: nearly all actives have a fitted effect of over 65% in size
Conditions: iHSKM cells + IFN-b, HiBiT-tagged MHC-I luminescence, 24 h; series mostly up to 45.8 µM
Results filed as inconclusive are left out. Activity calls are given as the source filed them. Calls follow the shape of the dose curve; as a rule, active = well fitted inhibition curve with a large enough effect; inconclusive = small, poorly fitted or top-dose-only effect; inactive = no such curve, though single readings can be large or run the other way.
Valid outcomes are listed here; reply with one: active, inactive

Use these answered entries as a reference point.
molecule: CC(=O)OCCN1C(=O)c2c(C)nc3ccc(S(=O)(=O)N4CCOCC4)cc3c2C1=O
class-name: inactive
--
molecule: C1Cc2[nH]nc(-c3nn[nH]n3)c2C1
class-name: inactive
--
molecule: O=c1[nH]nc(Sc2ncc([N+](=O)[O-])s2)n1-c1ccc2c(c1)OCCO2
class-name: active
--
molecule: Cc1ccc(CN2CCNCC2)cc1NC(=O)CNc1ccc(F)c(F)c1
class-name: inactive

Please share the test call associated with `CCCNC(=O)Nc1ccc(Oc2ncnc3cc(OC)c(OC)cc23)cc1Cl` . inactive

Write down the call the test reported for this molecule. Item: `CCN(CC)CCCCNc1ncc2cc(-c3cc(OC)cc(OC)c3)c(NC(=O)NC(C)(C)C)nc2n1` active

Could you please tell me the result logged for `CCCCCCCCCC(=O)N[C@@H](Cc1c[nH]c2ccccc12)C(=O)N[C@H](CC(N)=O)C(=O)N[C@@H](CC(=O)O)C(=O)N[C@@H]1C(=O)NCC(=O)N[C@@H](CCCN)C(=O)N[C@@H](CC(=O)O)C(=O)N[C@H](C)C(=O)N[C@@H](CC(=O)O)C(=O)NCC(=O)N[C@H](CO)C(=O)N[C@@H]([C@@H](C)CC(=O)O)C(=O)N[C@@H](CC(=O)c2ccccc2N)C(=O)O[C@@H]1C` in this assay? inactive

State the result this test recorded for `O=C(O)CCCc1c[nH]c2ccccc12` . inactive

Hey, what did the test say about COc1ccc(C(=O)CC2(O)C(=O)Nc3c(Cl)ccc(Cl)c32)cc1 (configuration not stated) ? inactive

What is the recorded call for this molecule in the test? `CC[C@@H]1C(=O)N(C)c2cnc(Nc3ccc(C(=O)NC4CCN(C)CC4)cc3OC)nc2N1C1CCCC1` active

----------
Tested on: JEG-3
Test: Primary qHTS to identify gynecologic anti-cancer compounds using libraries of approved drugs and bioactive compounds (AID 1345084); further: nearly all actives have a fitted effect of over 55% in size
Details: Gynecologic cancer cell panel viability, ATPlite luminescence, 48 h; series mostly up to 57.5 µM
Records with an inconclusive call do not appear. The source made the active and inactive calls. Calls come from the whole dose curve; as a rule, active = well fitted cell-killing curve with a large enough effect; inconclusive = small, poorly fitted or top-dose-only effect, or effect the other way; inactive = flat fitted curve, though single readings scatter.
Your response should consist of one outcome taken from active, inactive

Some solved entries appear below for comparison.
molecule: CCOC(=O)C1=C(C)NC2=C(C(=O)CC(C)(C)C2)C1c1ccc(-c2ccccc2)cc1 (stereo not drawn)
class-name: inactive
//
molecule: CC1(O)CC(c2nc(-c3ccc4ccc(-c5ccccc5)nc4c3)c3c(N)nccn23)C1 (stereo not drawn)
class-name: inactive
//
molecule: Cc1cc(Nc2ncnc3ccc(-c4ccc(CNCCS(C)(=O)=O)o4)cc23)ccc1Oc1ccn2ncnc2c1
class-name: inactive
//
molecule: COc1cccc(Nc2c(C(N)=O)cnc3c(C)cc(S(=O)(=O)c4cccc(C(=O)N(C)C)c4)cc23)c1
class-name: inactive
//
molecule: Cc1c(NC(=O)OC[C@@H]2COCCN2)cn2ncnc(Nc3ccc4c(cnn4Cc4cccc(F)c4)c3)c12
class-name: inactive

For `CCc1cc2c(cc1N1CCC(N3CCOCC3)CC1)C(C)(C)c1[nH]c3cc(C#N)ccc3c1C2=O` , what call appears in the results of this test? inactive

Assay result, entry `O=C(O)c1ccc2c(c1)nc(Nc1cccc(Cl)c1)c1ccncc12` — outcome? inactive

# outcome recorded in this test, key = `COC(=O)c1ccc2c(C(=Nc3ccc(N(C)C(=O)CN4CCN(C)CC4)cc3)c3ccccc3)c(O)[nH]c2c1` inactive

Status in this test for `Cc1cc(CN2CCN(c3c(Br)cnc4nc(-c5ccc(N6CCN(C)CC6)cc5)[nH]c34)CC2)no1` ? inactive

Which outcome did this test record for the molecule `Nc1nc(Nc2ccc(S(N)(=O)=O)cc2)nn1C(=O)c1c(F)cccc1F` ? inactive

Which outcome was entered for the molecule `CS(=O)(=O)c1ccc(-c2cnc(N)c(C(=O)Nc3ccccc3)n2)cc1` in this test? inactive

Call for entry `Cc1ccc2nc(NC(=O)CSc3nc4c(c(=O)n3-c3ccccc3)SCC4)sc2c1` : inactive

What is the recorded call for this molecule in the test? `COc1cc(C(=O)NS(=O)(=O)c2ccccc2C)ccc1Cc1cn(C)c2ccc(NC(=O)OC3CCCC3)cc12` inactive

How did this test come out for `C[C@@H](Oc1cc(-c2cnn(C3CCNCC3)c2)cnc1N)c1c(Cl)ccc(F)c1Cl` ? active

----------
Assay: NS1 protein of Zika virus - qHTS assay to identify small molecule inhibitors in human HEK 293 cells (AID 1347053); further: nearly all actives have a fitted effect of over 55% in size
Conditions: HEK293 ZIKV MR766 infection, NS1 TR-FRET, 24 h; series mostly up to 46.1 µM
Results filed as inconclusive are left out. Activity calls are given as the source filed them. Calls follow the shape of the dose curve; as a rule, active = well fitted inhibition curve with a large enough effect; inconclusive = small, poorly fitted or top-dose-only effect; inactive = no such curve, though single readings can be large or run the other way.
Please answer using one outcome listed in 1 for active, 0 for inactive

Check out these entries, answers already filled in.
compound: CC(C)c1noc(N2CCC(COc3ccc(-c4ccc(S(C)(=O)=O)cc4)nc3)CC2)n1
class-name: 0

compound: NC(=O)Nc1cc(-c2cccc(F)c2)sc1C(=O)N[C@H]1CCCNC1
class-name: 1

compound: Cn1c2cc(S(C)=O)sc2c2cnn(Cc3cccc(N)c3)c(=O)c21 (centres undefined)
class-name: 0

compound: Cc1[nH]nc2ccc(-c3cncc(OC[C@@H](N)Cc4ccccc4)c3)cc12
class-name: 1

compound: C1Cc2[nH]nc(-c3nn[nH]n3)c2C1
class-name: 0

compound: Nc1nc(NCCNc2ncc(-n3ccnc3)c(-c3ccc(Cl)cc3Cl)n2)ccc1[N+](=O)[O-]
class-name: 0

compound: CC(C)c1cc(-c2n[nH]c(=O)n2-c2ccc3c(ccn3C)c2)c(O)cc1O
class-name: 0

compound: C[C@]1(CO)CN(c2cc(C(=O)Nc3ccc4c(c3)-c3c(c(C(N)=O)nn3-c3ccc(F)cc3)CC4)c(Cl)cn2)C[C@@]1(C)CO
class-name: 1

Query compound follows.
Record request — test call for `O=C(Cc1ccc(-c2ccc(OCCN3CCOCC3)cc2)cn1)NCc1ccccc1` 1
